molecular target: Neutrophil collagenase (Homo sapiens, UniProt P22894); assay: Inhibition of matrix metalloprotease-8
Sequence (P22894 whole entry): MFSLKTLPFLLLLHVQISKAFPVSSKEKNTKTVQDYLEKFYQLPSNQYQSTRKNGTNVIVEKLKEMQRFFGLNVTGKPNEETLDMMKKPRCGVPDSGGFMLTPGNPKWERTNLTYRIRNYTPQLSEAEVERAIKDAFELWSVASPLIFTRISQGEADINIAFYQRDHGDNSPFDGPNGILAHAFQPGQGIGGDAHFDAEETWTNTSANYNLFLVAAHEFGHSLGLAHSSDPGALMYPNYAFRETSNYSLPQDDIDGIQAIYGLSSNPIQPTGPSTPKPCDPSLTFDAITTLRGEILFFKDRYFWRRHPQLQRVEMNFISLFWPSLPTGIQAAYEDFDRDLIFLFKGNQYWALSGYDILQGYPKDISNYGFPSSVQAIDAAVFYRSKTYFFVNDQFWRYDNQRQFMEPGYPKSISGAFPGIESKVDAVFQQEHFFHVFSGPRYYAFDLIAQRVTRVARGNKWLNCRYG
Provide the recorded pKi for the entries that follow.
Give bare numbers, as −log10 of the molar value.

compound: NC(=O)C(Cc1c[nH]c2ccccc12)NC(=O)C(CSc1ccccc1OC(F)(F)F)CP(=O)(O)C(Cc1ccccc1)NC(=O)OCc1ccccc1 (stereo not drawn)
pKi: 3.70
--
compound: NC(=O)C(Cc1c[nH]c2ccccc12)NC(=O)C(CSc1ccccc1Br)CP(=O)(O)C(Cc1ccccc1)NC(=O)OCc1ccccc1 (stereo not drawn)
pKi: 4.74

Consider the additional compound presented here.
In: Can you share its pKi? I mean this compound: COc1ccccc1SCC(CP(=O)(O)C(Cc1ccccc1)NC(=O)OCc1ccccc1)C(=O)NC(Cc1c[nH]c2ccccc12)C(N)=O (stereo not drawn)
Out: 4.41
